For each entry below, report its inhibition at 30 min, 10 µM value.
molecular target: CYP3A4 (Homo sapiens); assay: in vitro; conditions: human liver microsomes, probe midazolam
Sequence (P08684 whole entry): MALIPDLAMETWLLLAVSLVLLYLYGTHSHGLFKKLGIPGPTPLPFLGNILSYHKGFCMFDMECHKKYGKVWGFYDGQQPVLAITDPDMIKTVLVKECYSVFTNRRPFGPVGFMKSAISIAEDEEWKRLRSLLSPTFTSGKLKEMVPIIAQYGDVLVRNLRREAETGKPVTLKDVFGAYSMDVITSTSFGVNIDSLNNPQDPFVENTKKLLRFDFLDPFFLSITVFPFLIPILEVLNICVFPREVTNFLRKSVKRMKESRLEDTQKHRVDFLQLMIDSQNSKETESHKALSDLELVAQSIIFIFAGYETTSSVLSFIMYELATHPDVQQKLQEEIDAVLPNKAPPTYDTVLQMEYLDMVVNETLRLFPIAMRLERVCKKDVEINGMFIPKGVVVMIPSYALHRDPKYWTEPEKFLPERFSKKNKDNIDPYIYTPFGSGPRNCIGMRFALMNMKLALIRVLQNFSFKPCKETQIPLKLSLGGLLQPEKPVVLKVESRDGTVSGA
Description: Time dependent inhibition of CYP3A4 in human liver microsomes at 10 uM using midazolam as substrate preincubated for 30 mins in presence of NADPH by LC/MS/MS analysis relative to control
Show the value, then the unit it is measured in.

I would be grateful if you could share the reported inhibition at 30 min, 10 µM for C[C@@H](C1CC1)N1Cc2cc(-c3ccn4nc(N)c(C(=O)N[C@H]5CC[C@@](C)(O)CC5)c4n3)cc(OC(F)F)c2C1=O .
10%

Item Cc1cc(-c2ccn3nc(N)c(C(=O)N[C@H](C)CO)c3n2)cc2c1C(=O)N([C@@H](C)C1CC1)C2 has what recorded inhibition at 30 min, 10 µM?
19%

Bench note: what inhibition at 30 min, 10 µM did Cc1cc(-c2ccn3nc(N)c(C(=O)N[C@H]4C[C@H](O)C4)c3n2)cc2c1C(=O)N([C@@H](C)C1CC1)C2 show?
14%

Entry Cc1cc(-c2ccn3nc(N)c(C(=O)N[C@@H]4CC[C@@H](O)C4)c3n2)cc2c1C(=O)N([C@@H](C)C1CC1)C2 has what inhibition at 30 min, 10 µM?
14%

* * *

assay: Metabolic stability in rat hepatocyte assessed as intrinsic clearance per 10^8 cells at 0.5 uM by LC-MS/MS analysis; type: ADME, cell-based; details: hepatocytes
property name: hepatocyte intrinsic clearance (µL/min)
Write down the numeric answer in µL/min and omit the unit.

Request the reported hepatocyte intrinsic clearance associated with C[C@@H](C1CC1)N1Cc2cc(-c3ccn4nc(N)c(C(=O)NC5CC5)c4n3)cc(C3CC3)c2C1=O
2.97

Return reported hepatocyte intrinsic clearance; argument: Cc1cc(-c2ccn3nc(N)c(C(=O)N[C@H]4C[C@H](O)C4)c3n2)cc2c1C(=O)N([C@@H](C)C1CC1)C2
15.7

* * *

test: Clearance in Beagle dog at 1 mg/kg, iv; format: ADME, organism-based, Canis lupus familiaris; details: in vivo
Kindly state clearance for each of the entries shown.
Could you give me the number in mL/min/kg? Just the number is fine.

Given C[C@@H](C1CC1)N1Cc2cc(-c3ccn4nc(N)c(C(=O)N[C@H]5CC[C@@](C)(O)CC5)c4n3)cc(OC(F)F)c2C1=O , state its recorded clearance.
9.67

Which value of clearance has been reported for C[C@@H](C1CC1)N1Cc2cc(-c3ccn4nc(N)c(C(=O)N[C@H]5CC[C@@](C)(O)CC5)c4n3)cc(OC(F)(F)F)c2C1=O in the records?
14

* * *

test: Metabolic stability in rat hepatocyte assessed as intrinsic clearance per 10^8 cells at 0.5 uM by LC-MS/MS analysis; format: ADME, cell-based; details: hepatocytes
property name: hepatocyte intrinsic clearance (µL/min)
Give a bare numeral; the unit µL/min is implied.

Fill in: hepatocyte intrinsic clearance of Cc1cc(-c2ccn3nc(N)c(C(=O)NC4COC4)c3n2)cc2c1C(=O)N([C@@H](C)C1CC1)C2 is ___
4.59

Quick check: hepatocyte intrinsic clearance of Cc1cc(-c2ccn3nc(N)c(C(=O)N[C@H]4CC[C@](C)(O)CC4)c3n2)cc2c1C(=O)N([C@@H](C)C1CC1)C2 ?
22.1

What does the data say about its hepatocyte intrinsic clearance? Entry: C[C@H](N1Cc2cc(-c3ccn4nc(N)c(C(=O)N[C@@H](CO)C5CC5)c4n3)cc(C3CC3)c2C1=O)C(F)(F)F
1.69

Look up hepatocyte intrinsic clearance: Cc1cc(-c2ccn3ncc(C(=O)Nc4cnn(C)c4)c3n2)cc2c1C(=O)N([C@@H](C)C1CC1)C2
12.2

Find the recorded hepatocyte intrinsic clearance belonging to C[C@H](N1Cc2cc(-c3ccn4nc(N)c(C(=O)N[C@@H](CO)C5CC5)c4n3)cc(Cl)c2C1=O)C(F)(F)F and report it.
2.98

Which measured hepatocyte intrinsic clearance value corresponds to C[C@@H](C1CC1)N1Cc2cc(-c3ccn4nc(N)c(C(=O)N[C@@H](CO)C5CC5)c4n3)cc(OC(F)F)c2C1=O ?
8.42

Recorded hepatocyte intrinsic clearance for CC[C@H](N1Cc2cc(-c3ccn4nc(N)c(C(=O)NC5CC5)c4n3)cc(NS(C)(=O)=O)c2C1=O)C(F)(F)F , please?
6.67

Param item = C[C@@H](C1CC1)N1Cc2cc(-c3ccn4nc(N)c(C(=O)NC5CC5)c4n3)cc(OC(F)F)c2C1=O ; retrieve measured hepatocyte intrinsic clearance.
12.6

Which hepatocyte intrinsic clearance reading was recorded for the compound C[C@@H](C1CC1)N1Cc2cc(-c3ccn4nc(N)c(C(=O)NC5CC5)c4n3)cc(Cl)c2C1=O ?
2.89
